measurement.context: 278.9 K; 101.33 kPa; Liquid; Vibrating tube method
quantity.kind: mass density (kg/m3)

CCCC(=O)[O-].C[NH2+]CCO [N-methyl-2-hydroxyethylammonium butanoate]; 1052.21
C[NH2+]CCO.O=C[O-] [2-hydroxy-N-methylethanaminium formate]; 1138.99
CCCCC(=O)[O-].C[NH2+]CCO [2-hydroxy-N-methylethanaminium pentanoate]; 1029.18
CC(=O)[O-].C[NH2+]CCO [N-methyl-2-hydroxyethylammonium acetate]; 1112.38
CCC(=O)[O-].C[NH2+]CCO [2-hydroxy-N-methylethanaminium propionate]; 1083.8
CC(C)C(=O)[O-].C[NH2+]CCO [2-hydroxy-N-methylethanaminium isobutyrate]; 1055.64

src = the NIST ThermoML archive (doi:10.1021/je900550v)
